Origin of values: ChEMBL document CHEMBL1150739

system: KB; assay: Cytotoxicity against human KB cells; format: functional; details: read-out: ED50 (the source's name)
Below, each entry is listed alongside its reported EC50.
attribute measured: EC50 (µg/mL)

compound | assay target | attribute measured | readout number
C=C1C[C@@]23C[C@H](O)[C@]4(O)[C@@]5(C)C[C@H](O)C[C@@]46[C@@H]2[C@H](O)[C@H](OC(=O)/C(C)=C/C)[C@@H]1[C@H]3[C@H]6N(C)C5 | KB | EC50 | 1
C=C1C[C@]23[C@H]4[C@H]1[C@@H](OC(=O)/C(C)=C/C)[C@@H](OC(=O)c1ccccc1)[C@H]2[C@@]12C[C@@H](O)C[C@@](C)(CN(C)[C@H]41)[C@@]2(O)[C@@H](O)[C@@H]3O | KB | EC50 | 0.001
C=C1C[C@]23[C@H]4[C@H]1[C@@H](OC(=O)/C(C)=C/C)[C@@H](OC(=O)/C(C)=C/CO)[C@H]2[C@@]12C[C@@H](O)C[C@@](C)(CN(C)[C@H]41)[C@@]2(O)[C@@H](O)[C@@H]3O | KB | EC50 | 0.05
C=C1C[C@]23[C@H]4[C@H]1[C@@H](OC(=O)/C(C)=C/C)[C@@H](OC(=O)/C(C)=C/C)[C@H]2[C@@]12C[C@@H](O)C[C@@](C)(CN(C)[C@H]41)[C@@]2(O)[C@@H](O)[C@@H]3O | KB | EC50 | 0.001
C=C1C[C@@]23C[C@H](O)[C@]4(O)[C@@]5(C)C[C@H](O)C[C@@]46[C@@H]2[C@H](OC(=O)/C(C)=C/C)[C@H](OC(=O)/C(C)=C/C)[C@@H]1[C@H]3[C@H]6N(C)C5 [ANOPTERINE] | KB | EC50 | 0.05
